Test details: Cytotoxicity against human Hep2 cells assessed as cell survival fraction at 100 ug/mL after 24 hrs by trypan blue exclusion method
Assay type: cell-based
Condition summary: HEp-2 cells, read-out: Survival
Collected viability at 24 h, 100 ug/mL values appear next to each entry.

[
  {
    "Compound": "CC1CC/C(=N\\Nc2nc(-c3ccc(I)cc3)cs2)C1 (stereo not drawn)",
    "Unit name": "%",
    "viability at 24 h, 100 ug/mL": 0
  },
  {
    "Compound": "CCC/C(C)=N/Nc1nc(-c2ccc(I)cc2)cs1",
    "Unit name": "%",
    "viability at 24 h, 100 ug/mL": 60
  },
  {
    "Compound": "CC1CCC/C1=N\\Nc1nc(-c2ccc(I)cc2)cs1 (stereo not drawn)",
    "Unit name": "%",
    "viability at 24 h, 100 ug/mL": 0
  },
  {
    "Compound": "CCC(CC)=NNc1nc(-c2ccc(I)cc2)cs1",
    "Unit name": "%",
    "viability at 24 h, 100 ug/mL": 58
  },
  {
    "Compound": "C/C(=N\\Nc1nc(-c2ccc(I)cc2)cs1)c1ccncc1",
    "Unit name": "%",
    "viability at 24 h, 100 ug/mL": 0
  },
  {
    "Compound": "CCCCC/C(C)=N/Nc1nc(-c2ccc(I)cc2)cs1",
    "Unit name": "%",
    "viability at 24 h, 100 ug/mL": 33
  },
  {
    "Compound": "Clc1ccccc1C(c1ccccc1)(c1ccccc1)n1ccnc1",
    "Unit name": "%",
    "viability at 24 h, 100 ug/mL": 10
  },
  {
    "Compound": "Ic1ccc(-c2csc(N/N=C/c3cccc4ccccc34)n2)cc1",
    "Unit name": "%",
    "viability at 24 h, 100 ug/mL": 0
  }
]

----------
Test details: Cytotoxicity against human Hep2 cells assessed as cell survival fraction at 0.05 ug/mL after 24 hrs by trypan blue exclusion method
Format: cell-based
Condition summary: HEp-2 cells, read-out: Survival
Listed below: viability at 24 h, 0.05 ug/mL values for each entry.
Parameter: viability at 24 h, 0.05 ug/mL

[
  {
    "Compound": "C/C(=N\\Nc1nc(-c2ccc(I)cc2)cs1)c1ccncc1",
    "Parameter": "viability at 24 h, 0.05 ug/mL",
    "Reported result": "90%"
  },
  {
    "Compound": "CCC(CC)=NNc1nc(-c2ccc(I)cc2)cs1",
    "Parameter": "viability at 24 h, 0.05 ug/mL",
    "Reported result": "92%"
  },
  {
    "Compound": "CC1CCC/C1=N\\Nc1nc(-c2ccc(I)cc2)cs1 (stereo not drawn)",
    "Parameter": "viability at 24 h, 0.05 ug/mL",
    "Reported result": "92%"
  },
  {
    "Compound": "Ic1ccc(-c2csc(N/N=C/c3cccc4ccccc34)n2)cc1",
    "Parameter": "viability at 24 h, 0.05 ug/mL",
    "Reported result": "90%"
  },
  {
    "Compound": "CC1CC/C(=N\\Nc2nc(-c3ccc(I)cc3)cs2)C1 (stereo not drawn)",
    "Parameter": "viability at 24 h, 0.05 ug/mL",
    "Reported result": "95%"
  },
  {
    "Compound": "Clc1ccccc1C(c1ccccc1)(c1ccccc1)n1ccnc1 [CLOTRIMAZOLE]",
    "Parameter": "viability at 24 h, 0.05 ug/mL",
    "Reported result": "100%"
  },
  {
    "Compound": "CCC/C(C)=N/Nc1nc(-c2ccc(I)cc2)cs1",
    "Parameter": "viability at 24 h, 0.05 ug/mL",
    "Reported result": "92%"
  },
  {
    "Compound": "CCCCC/C(C)=N/Nc1nc(-c2ccc(I)cc2)cs1",
    "Parameter": "viability at 24 h, 0.05 ug/mL",
    "Reported result": "98%"
  }
]

----------
Tested on: [Candida] sake
Test details: Antifungal activity against 2 strains of Candida sake after 24 hrs by […]
Format: functional
Condition summary: Fermentozyma sake
Lab note: cut-off is 30 µg/mL. Strictly less in MIC is Condition met. Exactly 30 µg/mL or more is Condition not met.

[
  {
    "Molecule": "C/C(=N\\Nc1nc(-c2ccc(I)cc2)cs1)c1cccnc1",
    "Answer label": "Condition not met"
  },
  {
    "Molecule": "Ic1ccc(-c2csc(N/N=C/c3ccc4c(c3)OCO4)n2)cc1",
    "Answer label": "Condition met"
  },
  {
    "Molecule": "Ic1ccc(-c2csc(N/N=C/c3cccnc3)n2)cc1",
    "Answer label": "Condition not met"
  },
  {
    "Molecule": "CC1CCC/C(=N\\Nc2nc(-c3ccc(I)cc3)cs2)C1 (stereo unspecified)",
    "Answer label": "Condition not met"
  },
  {
    "Molecule": "Clc1ccccc1C(c1ccccc1)(c1ccccc1)n1ccnc1",
    "Answer label": "Condition met"
  },
  {
    "Molecule": "OC(Cn1cncn1)(Cn1cncn1)c1ccc(F)cc1F",
    "Answer label": "Condition met"
  },
  {
    "Molecule": "Ic1ccc(-c2csc(N/N=C/c3ccco3)n2)cc1",
    "Answer label": "Condition not met"
  },
  {
    "Molecule": "Ic1ccc(-c2csc(N/N=C/c3ccncc3)n2)cc1",
    "Answer label": "Condition not met"
  },
  {
    "Molecule": "CC1CC/C(=N\\Nc2nc(-c3ccc(I)cc3)cs2)C1 (stereo unspecified)",
    "Answer label": "Condition met"
  },
  {
    "Molecule": "Ic1ccc(-c2csc(NN=C3CCCCC3)n2)cc1",
    "Answer label": "Condition met"
  },
  {
    "Molecule": "C/C(=N\\Nc1nc(-c2ccc(I)cc2)cs1)c1cccs1",
    "Answer label": "Condition met"
  },
  {
    "Molecule": "C/C(=N\\Nc1nc(-c2ccc(I)cc2)cs1)c1ccc2ccccc2c1",
    "Answer label": "Condition not met"
  },
  {
    "Molecule": "CCC/C(C)=N/Nc1nc(-c2ccc(I)cc2)cs1",
    "Answer label": "Condition not met"
  },
  {
    "Molecule": "Ic1ccc(-c2csc(N/N=C/c3cccc4ccccc34)n2)cc1",
    "Answer label": "Condition not met"
  },
  {
    "Molecule": "COC1=CC(=O)C[C@@H](C)[C@]12Oc1c(Cl)c(OC)cc(OC)c1C2=O",
    "Answer label": "Condition met"
  },
  {
    "Molecule": "Ic1ccc(-c2csc(N/N=C/c3cccs3)n2)cc1",
    "Answer label": "Condition not met"
  }
]

----------
Parameter: viability at 24 h, 10 ug/mL. Scope: all listed entries.
Test details: Cytotoxicity against human Hep2 cells assessed as cell survival fraction at 10 ug/mL after 24 hrs by trypan blue exclusion method
Type: cell-based
Condition summary: HEp-2 cells, read-out: Survival

[
  {
    "Compound": "C/C(=N\\Nc1nc(-c2ccc(I)cc2)cs1)c1ccncc1",
    "Unit name": "%",
    "viability at 24 h, 10 ug/mL": 30
  },
  {
    "Compound": "CC1CCC/C1=N\\Nc1nc(-c2ccc(I)cc2)cs1 (stereo not drawn)",
    "Unit name": "%",
    "viability at 24 h, 10 ug/mL": 70
  },
  {
    "Compound": "CCC/C(C)=N/Nc1nc(-c2ccc(I)cc2)cs1",
    "Unit name": "%",
    "viability at 24 h, 10 ug/mL": 60
  },
  {
    "Compound": "Clc1ccccc1C(c1ccccc1)(c1ccccc1)n1ccnc1 [CLOTRIMAZOLE]",
    "Unit name": "%",
    "viability at 24 h, 10 ug/mL": 68
  },
  {
    "Compound": "CC1CC/C(=N\\Nc2nc(-c3ccc(I)cc3)cs2)C1 (stereo not drawn)",
    "Unit name": "%",
    "viability at 24 h, 10 ug/mL": 88
  },
  {
    "Compound": "CCCCC/C(C)=N/Nc1nc(-c2ccc(I)cc2)cs1",
    "Unit name": "%",
    "viability at 24 h, 10 ug/mL": 83
  },
  {
    "Compound": "CCC(CC)=NNc1nc(-c2ccc(I)cc2)cs1",
    "Unit name": "%",
    "viability at 24 h, 10 ug/mL": 67
  },
  {
    "Compound": "Ic1ccc(-c2csc(N/N=C/c3cccc4ccccc34)n2)cc1",
    "Unit name": "%",
    "viability at 24 h, 10 ug/mL": 73
  }
]
